Please respond with reported Mean % infected for every item in the list.
tested on: SARS-CoV-2; type: cell-based; conditions: primary screen using live virus; average of the duplicates
Answers are plain numbers, in %.

Consider the reported Mean % infected for these sequences:
- monomer-sequence: "GGAAGGAAGTTCTGTTGAA [COV3]"
  system: "SARS-CoV-2"
  experimental-result: 5
- monomer-sequence: "GCCATTAGTGCAAAGAATA [COV4]"
  system: "SARS-CoV-2"
  experimental-result: 6
- monomer-sequence: "GCCGCAAATTGCACAATTT [COV15]"
  system: "SARS-CoV-2"
  experimental-result: 11
- monomer-sequence: "GGCCGCAAATTGCACAATT [COV14]"
  system: "SARS-CoV-2"
  experimental-result: 8

I'd like to know its Mean % infected. The sequence in question is CCACCAACAGAGCCTAAAA [COV18]
8

###

system: SARS-CoV-2 target gene fragments (Spike, ORF1ab, ORF3A & E & M, N & ORF10 & 3'UTR); format: cell-based; conditions: Table C; 48 h, 96 well; […]
Give EC50 (pg/ul, 48 h, 96 well) 293T for every item shown.
Numbers only, in pg/µL.

- substance: "CGACTACTAGCGTGCCTTT [COV6]"
  system: "SARS-CoV-2 target gene fragments (Spike, ORF1ab, ORF3A & E & M, N & ORF10 & 3'UTR)"
  endpoint-name: "EC50 (pg/ul, 48 h, 96 well) 293T"
  experimental-result: 17.9

Could I get EC50 (pg/ul, 48 h, 96 well) 293T for every one of these entries?
1. UCUGCUAAUCUUGCUGCUACUAAAA (antisense strand not given here) [Guangzhou32]
2. GGACAAUCAAAAAGAGUUGdTdT [Guangzhou16]

1. 8
2. 20.4

###

test system: SARS-CoV-2 target gene fragments (Spike, ORF1ab, ORF3A & E & M, N & ORF10 & 3'UTR); format: cell-based; conditions: Table C; 48 h, 96 well; […]
endpoint-name: EC50 (pg/ul, 48 h, 96 well) 293T (pg/µL)
Answers are plain numbers, in pg/µL.

Examples from the recorded data:
- monomer-sequence: "UUGGUGGUUUUAAUUUUUCACAAAU (antisense strand not given here) [Guangzhou31]"
  system: "SARS-CoV-2 target gene fragments (Spike, ORF1ab, ORF3A & E & M, N & ORF10 & 3'UTR)"
  EC50 (pg/ul, 48 h, 96 well) 293T / pg/µL: 44
- monomer-sequence: "GCUAAUCUUGCUGCUACUAAAAUGU [Guangzhou22]"
  system: "SARS-CoV-2 target gene fragments (Spike, ORF1ab, ORF3A & E & M, N & ORF10 & 3'UTR)"
  EC50 (pg/ul, 48 h, 96 well) 293T / pg/µL: 23.2
- monomer-sequence: "GGAAGGAAGTTCTGTTGAA [COV3]"
  system: "SARS-CoV-2 target gene fragments (Spike, ORF1ab, ORF3A & E & M, N & ORF10 & 3'UTR)"
  EC50 (pg/ul, 48 h, 96 well) 293T / pg/µL: 5.8
- monomer-sequence: "CCTAATGTGTAAAATTAAT [COV24]"
  system: "SARS-CoV-2 target gene fragments (Spike, ORF1ab, ORF3A & E & M, N & ORF10 & 3'UTR)"
  EC50 (pg/ul, 48 h, 96 well) 293T / pg/µL: 2.4

Proceeding to the next sequence to report its EC50 (pg/ul, 48 h, 96 well) 293T.
Can you look up the measured EC50 (pg/ul, 48 h, 96 well) 293T of CCAGAACAAACCCAAGGAA [COV13] for me?
3.1
